In this section we review reported IC50 values for a set of compounds.
TARGET_OR_SYSTEM: human JAK3 (aa 795-1124) catalytic domain (Homo sapiens, UniProt P52333)
Sequence (P52333 795-1124): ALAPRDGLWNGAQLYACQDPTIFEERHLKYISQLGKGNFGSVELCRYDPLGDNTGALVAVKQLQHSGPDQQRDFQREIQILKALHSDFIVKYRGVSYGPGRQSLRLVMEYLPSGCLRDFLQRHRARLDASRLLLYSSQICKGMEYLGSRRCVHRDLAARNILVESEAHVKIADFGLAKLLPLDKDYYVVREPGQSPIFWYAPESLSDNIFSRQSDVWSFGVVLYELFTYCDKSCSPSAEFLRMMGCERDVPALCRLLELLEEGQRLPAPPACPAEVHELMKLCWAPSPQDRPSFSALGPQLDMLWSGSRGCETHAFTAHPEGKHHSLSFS

Previously resolved entries follow.
| SAMPLE_SMILES | TARGET_OR_SYSTEM | READOUT_LABEL | RESULT |
| --- | --- | --- | --- |
| N#CCC(=O)N1CCC[C@@H](Nc2nc(Nc3ccc[nH]c3=O)ncc2F)C1 | human JAK3 (aa 795-1124) catalytic domain (Homo sapiens, UniProt P52333) | IC50 | < 100 nM |
| COc1cnc(Nc2ccc[nH]c2=O)nc1N[C@@H](C)c1ccc(F)cn1 | human JAK3 (aa 795-1124) catalytic domain (Homo sapiens, UniProt P52333) | IC50 | < 100 nM |
| N#CCC(=O)N1CCC[C@@H](Nc2nc(Nc3ccc[nH]c3=O)nc(N3CCOCC3)c2F)C1 | human JAK3 (aa 795-1124) catalytic domain (Homo sapiens, UniProt P52333) | IC50 | < 100 nM |
| C[C@H](Nc1cncc(Nc2ccc[nH]c2=O)n1)c1ccc(F)cn1 | human JAK3 (aa 795-1124) catalytic domain (Homo sapiens, UniProt P52333) | IC50 | < 100 nM |
| Cc1cnc(Nc2ccc[nH]c2=O)nc1N[C@H]1CC[C@H](CC#N)CC1 | human JAK3 (aa 795-1124) catalytic domain (Homo sapiens, UniProt P52333) | IC50 | < 100 nM |

State its IC50 on human JAK3 (aa 795-1124) catalytic domain (Homo sapiens, UniProt P52333): Cc1c(Nc2ccc[nH]c2=O)nc(N[C@@H]2CCCN(C(=O)CC#N)C2)nc1N1CCOCC1
< 100 nM

All values here come from patent US9034311B2.
